tgt: wt-PKR in mature human erythrocytes (Homo sapiens, UniProt P30613)
Construct: evaluated in purified RBCs purchased from Research Blood Components
Sequence (P30613 whole entry): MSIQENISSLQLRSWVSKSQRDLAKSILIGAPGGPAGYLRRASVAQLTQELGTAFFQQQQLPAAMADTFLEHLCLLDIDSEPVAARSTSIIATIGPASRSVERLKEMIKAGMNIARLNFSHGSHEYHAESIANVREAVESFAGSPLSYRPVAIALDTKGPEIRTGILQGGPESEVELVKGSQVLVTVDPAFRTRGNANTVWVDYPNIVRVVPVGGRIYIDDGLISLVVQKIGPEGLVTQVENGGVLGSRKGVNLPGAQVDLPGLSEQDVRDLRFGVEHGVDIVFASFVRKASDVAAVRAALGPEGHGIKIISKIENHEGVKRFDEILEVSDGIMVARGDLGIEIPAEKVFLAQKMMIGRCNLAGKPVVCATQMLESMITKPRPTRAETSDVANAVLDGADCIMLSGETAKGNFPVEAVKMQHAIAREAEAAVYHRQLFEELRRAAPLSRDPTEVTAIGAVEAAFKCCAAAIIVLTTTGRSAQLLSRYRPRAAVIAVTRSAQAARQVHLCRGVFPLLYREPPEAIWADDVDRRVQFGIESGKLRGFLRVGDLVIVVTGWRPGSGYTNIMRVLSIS
protocol: PKR activation in human red blood cells ex vivo (Biovision Pyruvate Kinase Assay)
condition info: human RBCs, 3 hr treatment, individual replicates
measured endpoint: EC50

Prompt: # input compound: O=C([C@H](CO)c1ccccc1)N1CC2=C(C1)CN(S(=O)(=O)c1cnc3c(c1)OCCO3)C2 (single isomer, unassigned) ; wanted: its EC50
Response: < 50 nM

---

tgt: PKR(G332S) (Homo sapiens, UniProt P30613, G332S)
Sequence (P30613 whole entry G332S): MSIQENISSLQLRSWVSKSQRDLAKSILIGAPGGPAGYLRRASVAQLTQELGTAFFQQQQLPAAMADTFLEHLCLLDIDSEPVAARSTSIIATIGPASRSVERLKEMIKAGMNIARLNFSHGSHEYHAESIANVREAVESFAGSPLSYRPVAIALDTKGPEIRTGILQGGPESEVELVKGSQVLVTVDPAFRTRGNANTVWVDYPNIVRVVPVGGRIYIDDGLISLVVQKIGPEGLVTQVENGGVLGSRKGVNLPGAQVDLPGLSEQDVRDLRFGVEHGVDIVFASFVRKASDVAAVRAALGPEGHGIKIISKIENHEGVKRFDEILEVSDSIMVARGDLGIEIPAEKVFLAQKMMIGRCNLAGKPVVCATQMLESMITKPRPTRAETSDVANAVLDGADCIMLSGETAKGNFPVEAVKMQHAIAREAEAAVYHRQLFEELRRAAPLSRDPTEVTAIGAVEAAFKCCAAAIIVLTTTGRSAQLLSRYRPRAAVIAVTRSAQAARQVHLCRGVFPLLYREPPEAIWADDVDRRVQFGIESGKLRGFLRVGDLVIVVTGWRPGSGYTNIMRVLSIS
protocol: Luminescence Assay (Kinase Glo Plus), PKR G332S
Format: biochemical
condition info: read-out: AC50 (PKRG332S)
Measured AC50 of individual entries

Prompt: Need AC50, item O=C([C@H](CO)c1ccccc1)N1CC2=C(C1)CN(C(=O)[C@H](CO)c1ccccc1)C2
Response: > 40 µM

Prompt: Recorded AC50 for O=C([C@@H](CO)c1ccccc1)N1CC2=C(C1)CN(S(=O)(=O)c1cnc3c(c1)OCCO3)C2 (single isomer, unassigned) , please?
Response: 1 to 40 µM

---

AC50 listing for selected compounds.
tgt: PKR-R510Q (Homo sapiens, UniProt P30613, R510Q)
Sequence (P30613 whole entry R510Q): as the sequence (P30613 whole entry) above, with R510Q counted along it
protocol: Luminescence Assay (Kinase Glo Plus), PKR R510Q
Format: biochemical
condition info: read-out: AC50 (PKRR510Q)

compound | endpoint value
O=C([C@@H](CO)c1ccccc1)N1CC2=C(C1)CN(S(=O)(=O)c1cnc3c(c1)OCCO3)C2 (single isomer, unassigned) | 1 to 40 µM
O=C([C@H](CO)c1ccccc1)N1CC2=C(C1)CN(S(=O)(=O)c1cnc3c(c1)OCCO3)C2 (single isomer, unassigned) | ≤ 0.1 µM
O=C([C@H](O)c1cccnc1)N1CC2=C(C1)CN(S(=O)(=O)c1cnc3c(c1)OCCO3)C2 | 1 to 40 µM
O=C(c1cn[nH]c1-c1ccccc1)N1CC2=C(C1)CN(S(=O)(=O)c1ccc3c(c1)OCCO3)C2 | > 40 µM

Prompt: Which measured AC50 value corresponds to O=C([C@H](CO)c1ccccc1)N1CC2=C(C1)CN(C(=O)[C@H](CO)c1ccccc1)C2 ?
Response: > 40 µM

---

protocol: PK/PD study in wild type mice, exposure
Assay type: in vivo, Balb/c mice
condition info: Balb/c, mouse, in vivo, oral, doses ≥60 mg/kg, read-out: AUC0-24
measured endpoint: AUC(0-t)

Prompt: Dear colleague, I am looking for the recorded AUC(0-t) of the following molecule: O=C([C@H](CO)c1ccccc1)N1CC2=C(C1)CN(S(=O)(=O)c1cnc3c(c1)OCCO3)C2 (single isomer, unassigned)
Response: > 4000 ng·h/mL

---

protocol: SAD/MAD/food effect study in healthy volunteers, pharmacokinetics
Format: in vivo, human
condition info: human, plasma; healthy volunteers, oral, postdose; read-out: Median Tmax
measured endpoint: Tmax
Write your answer as a measured quantity: the number, then the unit.

Prompt: If you can, please state the reported Tmax value of O=C([C@H](CO)c1ccccc1)N1CC2=C(C1)CN(S(=O)(=O)c1cnc3c(c1)OCCO3)C2 (single isomer, unassigned) [Compound 1] .
Response: 1 h

---

tgt: PKR in mouse RBCs (Mus musculus)
Construct: Mouse RBCs were isolated fresh from whole blood using a Ficoll gradient; endogenous in cells; host or cells: mouse red blood cells isolated fresh from whole blood
Sequence (P53657 whole entry): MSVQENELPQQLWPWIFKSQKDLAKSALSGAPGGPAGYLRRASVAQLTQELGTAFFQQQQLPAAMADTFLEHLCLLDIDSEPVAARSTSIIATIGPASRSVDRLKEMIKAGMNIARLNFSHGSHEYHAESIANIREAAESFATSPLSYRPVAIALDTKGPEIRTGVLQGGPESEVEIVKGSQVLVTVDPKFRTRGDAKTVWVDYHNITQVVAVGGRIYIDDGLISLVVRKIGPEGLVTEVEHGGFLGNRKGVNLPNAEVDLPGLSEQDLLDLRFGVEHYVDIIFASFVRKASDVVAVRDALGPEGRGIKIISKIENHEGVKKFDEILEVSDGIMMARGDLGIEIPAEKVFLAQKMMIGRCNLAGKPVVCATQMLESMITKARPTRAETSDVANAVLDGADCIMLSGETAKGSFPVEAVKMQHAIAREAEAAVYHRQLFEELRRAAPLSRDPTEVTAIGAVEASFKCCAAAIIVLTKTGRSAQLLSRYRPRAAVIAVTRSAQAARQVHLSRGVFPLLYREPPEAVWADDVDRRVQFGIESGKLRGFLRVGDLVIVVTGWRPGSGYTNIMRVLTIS
protocol: PKR activation in mouse red blood cells
Assay type: cell-based
condition info: individual replicates, read-out: EC50
pEC50: −log10 of the molar value.
measured endpoint: pEC50

Prompt: What measured pEC50 goes with O=C([C@H](CO)c1ccccc1)N1CC2=C(C1)CN(S(=O)(=O)c1cnc3c(c1)OCCO3)C2 (single isomer, unassigned) [Compound 1] ?
Response: > 6.90
